Entry source: patent EP0428000A1

# measurement-description: physchem
# conditions-used: NaOAc buffer, pH 4.7, aqueous buffer
Peptide text beside a SMILES is read from it. * marks the point of attachment. X1 = CN(C)c1ccc(/N=N/c2ccc(C(=O)*)cc2)cc1; EDANS = O=S(=O)(O)c1cccc2c(NCCN*)cccc12; GABA = NCCCC(=O)O
experimental-endpoint: solubility

INSERT INTO measurements (compound, experimental_endpoint, result) VALUES
  ('CC[C@H](C)[C@H](NC(=O)[C@@H]1CCCN1C(=O)[C@H](Cc1ccc(O)cc1)NC(=O)[C@H](CC(N)=O)NC(=O)[C@H](CCC(N)=O)NC(=O)[C@H](CO)NC(=O)CCCNC(=O)c1ccc(/N=N/c2ccc(N(C)C)cc2)cc1)C(=O)N[C@H](C(=O)N[C@@H](CCC(N)=O)C(=O)NCCNc1cccc2c(S(=O)(=O)O)cccc12)C(C)C [Substrate I] ({X1-GABA}-SQNYPIVQ-{EDANS})', 'solubility', '~150 µM');
